Origin of measurements: ChEMBL document CHEMBL1201862

Experiment: fluconazole-exposed Candida albicans growth modulators – fluorescence, retest, confirmation (AID 2467)
Type: functional, cell-based
Calls of active or inactive are those of the source.
Observation type: EC50

chemical_structure=CCn1c(SCC(=O)c2ccc(O)c(O)c2)nnc1-c1ccccc1OC endpoint_result="> 38000 nM (not active)"
chemical_structure=Oc1ccc(N=Nc2ccc3c(c2)OCCO3)c2cccnc12 endpoint_result="1240 nM (active)"
chemical_structure=O=c1c2ccccc2nc(-c2ccc(Cl)cc2Cl)n1O endpoint_result="2060 nM (active)"
chemical_structure=O=C(NCc1ccccc1)C1c2ccccc2Oc2ccccc21 endpoint_result="2430 nM (active)"

====

Biological target: Hexokinase HKDC1 (Homo sapiens, UniProt Q2TB90)
Sequence (Q2TB90 whole entry): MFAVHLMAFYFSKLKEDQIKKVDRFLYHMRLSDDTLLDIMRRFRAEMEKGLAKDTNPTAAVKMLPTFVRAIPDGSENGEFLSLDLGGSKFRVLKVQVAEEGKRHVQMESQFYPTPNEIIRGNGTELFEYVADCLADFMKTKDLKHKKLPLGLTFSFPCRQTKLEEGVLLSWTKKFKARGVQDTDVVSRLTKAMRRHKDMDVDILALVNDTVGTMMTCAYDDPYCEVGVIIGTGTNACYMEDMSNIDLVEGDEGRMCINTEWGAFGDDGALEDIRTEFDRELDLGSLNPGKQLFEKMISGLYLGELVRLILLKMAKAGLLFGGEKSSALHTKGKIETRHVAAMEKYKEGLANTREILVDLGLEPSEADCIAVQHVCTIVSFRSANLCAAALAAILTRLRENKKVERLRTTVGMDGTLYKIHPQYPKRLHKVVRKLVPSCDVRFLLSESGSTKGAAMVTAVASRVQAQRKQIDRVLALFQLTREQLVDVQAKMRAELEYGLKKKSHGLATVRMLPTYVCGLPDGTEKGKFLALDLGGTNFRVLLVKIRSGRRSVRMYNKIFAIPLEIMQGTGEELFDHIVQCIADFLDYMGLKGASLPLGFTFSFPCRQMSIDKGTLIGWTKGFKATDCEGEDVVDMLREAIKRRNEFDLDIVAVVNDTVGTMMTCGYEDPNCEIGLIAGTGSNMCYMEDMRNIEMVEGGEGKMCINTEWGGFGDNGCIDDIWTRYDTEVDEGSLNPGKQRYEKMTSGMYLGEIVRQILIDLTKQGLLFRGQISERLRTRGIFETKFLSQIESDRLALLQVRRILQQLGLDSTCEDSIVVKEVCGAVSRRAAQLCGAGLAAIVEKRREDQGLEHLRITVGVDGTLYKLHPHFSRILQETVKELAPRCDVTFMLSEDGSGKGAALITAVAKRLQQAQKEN
Assay: activation of HKDC1 glucose phosphorylation – biochemical, W721R variant, dose response (AID 504730)
Type: functional
Activity calls are given as the source filed them.
Labels: Yes for active, No for inactive

chemical_structure=Cc1onc(-c2ccccc2)c1C(=O)NNC(=S)NC(=O)c1ccc(Br)cc1 subject_of_test="Hexokinase HKDC1 (Homo sapiens, UniProt Q2TB90)" assigned_label=Yes
chemical_structure=C[N+](C)(CCCCCC[N+](C)(C)CCCN1C(=O)c2cccc3cccc(c23)C1=O)CCCN1C(=O)c2cccc3cccc(c23)C1=O subject_of_test="Hexokinase HKDC1 (Homo sapiens, UniProt Q2TB90)" assigned_label=No
chemical_structure=Cc1ccc(C2=NN=C(Nc3ccc(F)cc3)SC2)cc1 subject_of_test="Hexokinase HKDC1 (Homo sapiens, UniProt Q2TB90)" assigned_label=Yes
chemical_structure=COC(=O)c1c(NC(C)=O)sc(Cc2ccccc2)c1C subject_of_test="Hexokinase HKDC1 (Homo sapiens, UniProt Q2TB90)" assigned_label=No
